Biological target: HIV-1 reverse transcriptase (Human immunodeficiency virus type 1 group M subtype B)
Construct: Reverse transcriptase enzyme from the LAV strain of Human Immuno-deficiencyVirus (HIV-1); made in house; host or cells: E. coli JM109 (species of the strain is own knowledge), DNA clone pBRTprtl+ in expression vector pIBI21 (lac promoter)
Experiment: Reverse Transcriptase (RT) Assay (RNA-dependent DNA polymerase activity)
Type: biochemical, Human Immunodeficiency Virus (HIV-1), LAV strain
Details: 10 μg/ml; poly r(C)/oligo d(G) template, 60 minutes, room temperature; read-out: RT Inhibition (% @ 10 μg/ml)
For each of the compounds below, state its inhibition at 10 µg/mL.
Give bare numbers, in %.

STRUCTURE STRING: Nc1ccc2c(c1)Oc1ccccc1C(=O)N2
TARGET OR TEST SYSTEM: HIV-1 reverse transcriptase (Human immunodeficiency virus type 1 group M subtype B)
RESULT TYPE: inhibition at 10 µg/mL
RECORDED NUMBER: 3

Below is a list of compounds. For each, state its recorded inhibition at 10 µg/mL.
1. CCOC(=O)CN1C(=O)c2ccccc2Oc2ccccc21
2. CCN1C(=O)c2cc(N)ccc2Oc2ccc(C)cc21
3. CCOc1ccc2c(c1)Oc1ccccc1C(=O)N2CC

1. 76
2. 100
3. 74
